- ASSAY SUMMARY: in vivo
- TEST CONTEXT: female, dog, plasma, po, 10 mg/day
PARAMETER MEASURED: Cmax

{"MOLECULE": "CCN(CC)CC#CCOC(=O)C(O)(c1ccccc1)C1CCCCC1 (stereo not shown)", "EXPERIMENTAL VALUE": "~17.9 ng/mL"}

These data points were gathered from patent US20120053534A1.
